Each recorded value in this set is attributed to ChEMBL document CHEMBL1201862.

# Test system: UACC-257
# EXPERIMENT_SUMMARY: NCI tumour cell line growth inhibition, 48 h
The source made the active and inactive calls. Rule as the data show it: active = GI50 up to about 1.1 µM and inactive = higher.
For each entry below, report its GI50 value.

Example entries and their recorded answers appear below.
* CCCCCCCCCCCC(=O)OCCOCCOCCOCCOCCOC(=O)CCCCCCCCCCC | > 100 µM (inactive)
* CC(C(=O)COCc1ccccc1)P1(=O)OC(C)(C)CN1C(C)(C)C (configuration not stated) | > 100 µM (inactive)
* O=CC1C(Cl)=Nc2nc3ccccc3n2C1c1ccc([N+](=O)[O-])cc1 (configuration not stated) | 13.6 µM (inactive)
* CN1CCc2c(sc3nc(S)nc(S)c23)C1 | > 100 µM (inactive)
* c1ccc(C(NCC2CCO2)(c2ccccc2)c2ccccc2)cc1 (configuration not stated) | 19.4 µM (inactive)

Fill in GI50 for each of the 8 molecules listed.
1. O=C1O[C@H](C(Cl)(Cl)Cl)N2CCCC12 (some centres not stated)
2. COC(=O)[C@]1(c2cc3ccccc3n2S(=O)(=O)c2ccccc2)CC2CCC1NC2 (some centres not stated)
3. Ic1cccc(/C=C/CN2CCN(CCOC(c3ccccc3)c3ccccc3)CC2)c1
4. C=C1C(C(=O)OC)[C@H]1C(=O)OC (some centres not stated)
5. CCOC(=O)c1cc(C2=C(S)N(CC(C)CC)CC2)c(C(=O)CC)[nH]1 (configuration not stated)
6. CC(=O)OCC(C)C1=C(O)C(=O)C2(C)C/C=C(/C)CC/C=C(\C)CCC(O)C(C)CCC12 (configuration not stated)
7. c1ccc(CCN(Cc2nc3ccccc3[nH]2)Cc2nc3ccccc3[nH]2)cc1
8. CN(/N=C/c1ccnc2ccccc12)c1ccc([N+](=O)[O-])cc1[N+](=O)[O-]

Outgoing:
> 100 µM (inactive)
15.8 µM (inactive)
15.7 µM (inactive)
> 100 µM (inactive)
17.4 µM (inactive)
18.6 µM (inactive)
14.5 µM (inactive)
> 100 µM (inactive)

Fill in GI50 for each of the 4 molecules listed.
1. CC(=O)Nc1ccc(C(=O)NN2C(=O)C(Cl)C2c2ccc(Cl)cc2)cc1 (configuration not stated)
2. CC(=O)Oc1c(Br)ccc2cc(C(Br)Br)c(C(=O)c3ccccc3)nc12
3. CC(C)c1ccc(/C=C(\NC(=O)c2ccccc2)c2nc3ccccc3[nH]2)cc1
4. CC1(O)Oc2ccc3ccccc3c2C=C1C(N)=O (configuration not stated)

Outgoing:
1. > 100 µM (inactive)
2. 1.88 µM (inactive)
3. 35.2 µM (inactive)
4. > 100 µM (inactive)

###

# Test system: OVCAR-5
# EXPERIMENT_SUMMARY: NCI tumour cell line growth inhibition, 48 h
The source made the active and inactive calls. No stated cut-off is given here; in the data, active = GI50 up to about 1.1 µM and inactive = higher.
READOUT_TYPE: GI50

Example entries and their recorded answers appear below.
- CCCCC1CC(c2cccc([N+](=O)[O-])c2)=NO1 (stereo unspecified): > 100 µM (inactive)
- O=C(Nc1cc(C(F)(F)F)ccc1Cl)C(=O)C(C(=O)c1ccc2ccccc2c1)C1OC(=O)c2ccccc21 (stereo unspecified): 8.95 µM (inactive)
- CO/C(N)=C(C#N)/N=C/c1cccnc1: > 100 µM (inactive)
- O=C1c2ccccc2CC12Cc1cc3c(cc1C2=O)CCC3 (stereo unspecified): > 100 µM (inactive)
- CN(C)CCN(C)c1ccc2c(=O)n(CCN(C)C)c(=O)n3c4ccccc4c(=O)c1c23: 1.87 µM (inactive)

Fill in GI50 for each of the 6 compounds listed.
1. O=C(O)CCC1CCc2cccc3occ1c23 (stereo unspecified)
2. NCC(=O)NC(CO)C(=O)O (stereo unspecified)
3. COc1ccc(C2=Nc3ccccc3NC(=O)C2)cc1
4. COC(=O)C(NC(=O)CNC(=O)CSc1nnc(COc2ccc(Cl)cc2)n1-c1ccccc1)C(C)C (stereo unspecified)
5. CC(=O)OC1CC2c3cccc4c3C(CC2N(C)C1=O)CN4C(=O)c1ccccc1 (stereo unspecified)
6. Oc1cc(O)c2c(c1)OC(c1ccc(O)c(O)c1)C(O)C2c1c(O)cc(O)c2c1OC(c1ccc(O)c(O)c1)C(O)C2 (stereo unspecified)

Outgoing:
["> 100 µM (inactive)", "> 100 µM (inactive)", "> 100 µM (inactive)", "18.2 µM (inactive)", "32.4 µM (inactive)", "> 100 µM (inactive)"]
